Measured pKi of individual entries
- Measured Target: Human α-thrombin (Homo sapiens)
- Construct: Human α-thrombin was purchased from Haemotologic Technologies, Inc., VT, USA; purchased Haemotologic Technologies, Inc., VT, USA
- Test Method Notes: Thrombin inhibition constants of monovalent active-site moieties and TWE1 (method not described)
- Assay type: biochemical
- Study Conditions: monovalent binding moieties for the active site of thrombin
pKi: −log10 of the molar value. Non-standard residues stand in square brackets, D forms with d. Residues, ends and D or L forms follow the SMILES beside them. *: point of attachment. Dansyl = CN(C)c1cccc2c(S(=O)(=O)*)cccc12; dTic = O=C(O)[C@H]1Cc2ccccc2CN1
Quantity Measured: pKi

Compound	Experimental Result
CN(C)c1cccc2c(S(=O)(=O)N[C@@H](CCCNC(=N)N)C(=O)N3Cc4ccccc4C[C@@H]3C(N)=O)cccc12 [Dansyl-R-(d-Tic)-NH2] (Dansyl-Arg-[dTic]-NH2)	6.07
CC(C)(C)c1ccc(S(=O)(=O)N[C@@H](CCCNC(=N)N)C(=O)N2CCCC[C@@H]2C(=O)N[C@@H](Cc2c[nH]c3ccccc23)C(N)=O)cc1	5.22
CC(=O)N[C@H](Cc1ccccc1)C(=O)N1CCC[C@H]1C(=O)N[C@@H](CCCNC(=N)N)C(=O)O	3.77

These data points were gathered from patent US10155802B2.
